- Test system: melanoma RPMI-7951 cells
- assay: MTS cell viability assay, RPMI-7951 cells
- Format: cell-based, human
- runConditions: after 48 h of treatment (data not shown); read-out: IC50 against RPMI-7951 cells
recordedMetric: pIC50
Keep it numeric: pIC50 is minus log10 of the concentration in mol/L.

Inquiry: Which pIC50 reading was recorded for the molecule N.N.[Cl][Pt][Cl] [cisplatin, reference compound] ?
Reply text: 4.32
